molecular target: PAK2 (PAK65) (Homo sapiens); assay: In vitro PAK inhibition assay (SelectScreen, Ser/Thr 20 peptide); type: biochemical
Parameter IC50: see the listing below.

INSERT INTO results (molecule, value_measured) VALUES
  ('CCn1c(=O)c(-c2ccc(-c3ccccn3)s2)cc2cnc(Nc3ccc(N4CCN(C)CC4)cc3)nc21', '> 5 µM');

Measured IC50 of CCn1c(=O)c(-c2ccc(-c3cccc4ncccc34)cc2Cl)cc2cnc(Nc3ccc(N4CCN(C)CC4)cc3)nc21 : 0.05 to 0.5 µM

Measured IC50 of CCn1c(=O)c(-c2ccc(-c3cnn(C)c3)cc2)cc2cnc(Nc3ccc(N4CCN(C)CC4)cc3)nc21 : 0.05 to 0.5 µM

Measured IC50 of CCn1c(=O)c(-c2ccc(C3CC3)cc2Cl)cc2cnc(Nc3ccc(N4CCN(C)CC4)cc3)nc21 : 0.05 to 0.5 µM

Measured IC50 of CCn1c(=O)c(-c2ccc(-c3cccnc3C)cc2Cl)cc2cnc(Nc3ccc(C4=CCNCC4)cc3)nc21 : < 0.05 µM

Measured IC50 of CCn1c(=O)c(-c2ccc(-c3ccc(C)nc3)cc2Cl)cc2cnc(Nc3ccc(C4CCN5CCCC5C4)cc3)nc21 (stereo not drawn) : < 0.05 µM

Measured IC50 of CCn1c(=O)c(-c2ccc(-c3ccn[nH]3)cc2)cc2cnc(Nc3ccc(N4CCN(C)CC4)cc3)nc21 : 0.05 to 0.5 µM

Measured IC50 of CCn1c(=O)c(-c2ccc(-c3ccc(F)nc3C)cc2Cl)cc2cnc(Nc3ccc(C4CCN(C)CC4)c(F)c3)nc21 : 0.05 to 0.5 µM

Measured IC50 of CCn1c(=O)c(-c2ccc(-c3noc(C)n3)cc2Cl)cc2cnc(Nc3ccc(N4CCN(C)CC4)cc3)nc21 : < 0.05 µM

Measured IC50 of CCn1c(=O)c(-c2ccc(-c3ccc(NC(C)=O)nc3)cc2Cl)cc2cnc(Nc3ccc(N4CCN(C)CC4)cc3)nc21 : 0.5 to 5 µM

Measured IC50 of CCn1c(=O)c(-c2ccc(-c3cccnc3C)cc2Cl)cc2cnc(Nc3ccc(C4CCN(C(C)C)CC4)cc3)nc21 : 0.05 to 0.5 µM

Measured IC50 of CCn1c(=O)c(-c2ccc(-c3cnn(C)c3)cc2Cl)cc2cnc(Nc3ccc(N4CCN(C)CC4)cc3)nc21 : < 0.05 µM

Measured IC50 of CCn1c(=O)c(-c2nc(C)sc2C)cc2cnc(Nc3ccc(N4CCN(C)CC4)cc3)nc21 : 0.5 to 5 µM

Measured IC50 of CCn1c(=O)c(-c2ccc(-c3ccc(C)nc3F)cc2Cl)cc2cnc(Nc3ccc(C4CCN(C)CC4)cc3)nc21 : < 0.05 µM

Measured IC50 of CCn1c(=O)c(-c2ccc(-c3noc(C)n3)cc2)cc2cnc(Nc3ccc(N4CCN(C)CC4)cc3)nc21 : 0.05 to 0.5 µM

###

Parameter pIC50: see the listing below.
target: PAK2 (PAK65) (Homo sapiens, UniProt Q13177)
Sequence (Q13177 whole entry): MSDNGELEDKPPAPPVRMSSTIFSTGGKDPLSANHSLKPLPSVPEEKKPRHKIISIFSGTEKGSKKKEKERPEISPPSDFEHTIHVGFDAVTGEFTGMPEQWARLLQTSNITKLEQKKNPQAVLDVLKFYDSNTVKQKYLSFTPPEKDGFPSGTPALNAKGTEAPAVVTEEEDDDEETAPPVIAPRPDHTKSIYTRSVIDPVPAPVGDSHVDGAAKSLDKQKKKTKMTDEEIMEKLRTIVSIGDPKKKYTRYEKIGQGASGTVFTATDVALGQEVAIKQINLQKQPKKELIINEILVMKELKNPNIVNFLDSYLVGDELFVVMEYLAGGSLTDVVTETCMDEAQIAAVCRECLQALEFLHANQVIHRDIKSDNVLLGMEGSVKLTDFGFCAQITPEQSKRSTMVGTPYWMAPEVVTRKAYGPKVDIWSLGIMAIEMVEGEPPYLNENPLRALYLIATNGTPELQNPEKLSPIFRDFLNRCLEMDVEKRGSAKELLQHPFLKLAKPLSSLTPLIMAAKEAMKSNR
pIC50: −log10 of the molar value.

INSERT INTO results (compound, value_measured) VALUES
  ('CCn1c(=O)c(-c2ccc(-c3ccc(OC)nc3)cc2Cl)cc2cnc(Nc3ccc(N4CCN(C)CC4)cc3)nc21', '> 7.30'),
  ('CC(=O)Nc1ccc(-c2ccc(Cl)c(-c3cc4cnc(Nc5ccc(C6CCN(C)CC6)cc5)nc4n(C)c3=O)c2)cn1', '< 5.30'),
  ('CCN1CCC(c2ccc(Nc3ncc4cc(-c5ccc(-c6ccc(C)nc6)cc5Cl)c(=O)n(CC)c4n3)cc2F)CC1', '> 7.30'),
  ('CCn1c(=O)c(-c2nc(C3CCNCC3)sc2C)cc2cnc(Nc3ccc(N4CCN(C)CC4)cc3)nc21', '< 5.30'),
  ('CCn1c(=O)c(-c2ccc(-c3ncc(C)s3)cc2C)cc2cnc(Nc3ccc(C4CCN(C)CC4)cc3)nc21', '> 7.30'),
  ('CCn1c(=O)c(-c2ccc(-c3cccnc3F)cc2Cl)cc2cnc(Nc3ccc(CCN4CCOCC4)cc3)nc21', '6.30 to 7.30');

Observed pIC50 on PAK2 (PAK65) (Homo sapiens, UniProt Q13177), entry CCn1c(=O)c(-c2ccc(-c3ccsc3)cc2Cl)cc2cnc(Nc3ccc(N4CCN(C)CC4)cc3)nc21 , equals > 7.30

Observed pIC50 on PAK2 (PAK65) (Homo sapiens, UniProt Q13177), entry CCn1c(=O)c(-c2ccc(-c3ncc(C)s3)cc2Cl)cc2cnc(Nc3ccc(N4CCN(C)CC4)cc3)nc21 , equals > 7.30

Observed pIC50 on PAK2 (PAK65) (Homo sapiens, UniProt Q13177), entry Cc1ncc(-c2ccc(-c3cc4cnc(Nc5ccc(C6CCNCC6)cc5)nc4n(C)c3=O)c(Cl)c2)s1 , equals > 7.30

Observed pIC50 on PAK2 (PAK65) (Homo sapiens, UniProt Q13177), entry CCn1c(=O)c(-c2ccc(-c3cncs3)cc2Cl)cc2cnc(Nc3ccc(N4CCNCC4)c(F)c3)nc21 , equals > 7.30

Observed pIC50 on PAK2 (PAK65) (Homo sapiens, UniProt Q13177), entry CCn1c(=O)c(-c2ccc(-c3cccc4ncccc34)cc2)cc2cnc(Nc3ccc(N4CCN(C)CC4)cc3)nc21 , equals < 5.30

Observed pIC50 on PAK2 (PAK65) (Homo sapiens, UniProt Q13177), entry CCn1c(=O)c(-c2ccc(-c3cnc(C)s3)nc2)cc2cnc(Nc3ccc(C4CCN(C)CC4)cc3)nc21 , equals 5.30 to 6.30

Observed pIC50 on PAK2 (PAK65) (Homo sapiens, UniProt Q13177), entry CCn1c(=O)c(-c2ccc(-c3noc(C)n3)cc2Cl)cc2cnc(Nc3ccc(C4CCN5CCCC5C4)cc3)nc21 (stereo not shown) , equals > 7.30

Observed pIC50 on PAK2 (PAK65) (Homo sapiens, UniProt Q13177), entry CCn1c(=O)c(-c2ccc(-c3cn[nH]c3)cc2)cc2cnc(Nc3ccc(N4CCN(C)CC4)cc3)nc21 , equals 5.30 to 6.30

Observed pIC50 on PAK2 (PAK65) (Homo sapiens, UniProt Q13177), entry CNC(=O)c1cc(-c2ccc(-c3cc4cnc(Nc5ccc(C6CCNCC6)cc5)nc4n(C)c3=O)c(Cl)c2)ccn1 , equals 6.30 to 7.30

Observed pIC50 on PAK2 (PAK65) (Homo sapiens, UniProt Q13177), entry CCN1CCC(c2ccc(Nc3ncc4cc(-c5ccc(-c6ccnc(C)c6)cc5Cl)c(=O)n(CC)c4n3)cc2F)CC1 , equals > 7.30
